The origin of these recorded values is PubChem BioAssay (NCI).

# TGI annotations
- Test system: HL-60(TB) leukemia
- METHOD_NOTES: NCI tumour cell line growth inhibition, 48 h
MEASURE_NAME: TGI

>>> print(df.to_string())
                                   molecule  endpoint_value
0  c1ccc2[nH]c(-c3ccc(Nc4nc(N5CCCC5)nc5[nH]ncc45)cc3)nc2c1        0.517 µM
1  Cc1ccc2[nH]c3c(c2c1)C1CCC(C(C)(C)C)CC1C1C(=O)N(c2ccc(Oc4ccccc4)cc2)C(=O)C31 (centres undefined)         8.09 µM
2  CCOc1ccc2c(c1)[n+]([O-])c(C(N)=O)c(N)[n+]2[O-]        > 100 µM
3  CCN1CC2=C(OC(N)=C(C#N)C2c2ccc(Cl)cc2)/C(=C/c2ccc(Cl)cc2)C1 (centres undefined)        > 100 µM
4  COC(=O)C1=C(C(=O)OC)C23CC4CCC2(C(=O)C1O3)C4(C)C (centres undefined)         52.6 µM
5  CC1OC1C(=O)P(=O)(O)O (centres undefined)        > 100 µM
6  O=S(=O)(O)c1cc(O)c(N=NC2S(=O)(=O)OCCOS2(=O)=O)c2ccccc12        > 100 µM
7  O=S1(=O)[C@H](c2ccccc2)c2c(-c3ccccc3)sc(-c3ccccc3)c2[C@@H]1c1ccccc1        > 100 µM
8  C/C(=N/NC(=S)N1CCCCCC1)c1cccc(/C(C)=N\NC(=S)N2CCCCCC2)n1         5.26 µM

###

- Tested on: UO-31 renal
- METHOD_NOTES: NCI tumour cell line growth inhibition, 48 h; in the data active = GI50 below about 0.43 µM; inactive = the rest
Outcomes: active, inactive

COMPOUND	ASSIGNED_CLASS
N#CSc1c[nH]c2ccc(/C=C/C(=O)/C=C(O)/C=C/c3ccc4[nH]cc(SC#N)c4c3)cc12	active
[O-]c1ccccc1C=NCCN=Cc1ccccc1[O-].[O]=[U+2]=[O]	inactive
CC(=O)Nc1ccc(CC[C@H]2CCC/C=C/[C@@H]3C[C@H](O)C[C@H]3[C@H](O)/C=C/C(=O)O2)cc1	active
Cc1ccc(NC(=O)c2ccoc2)cc1-c1ccc(C(=O)NCC2CC2)cc1	inactive
O=c1[nH]c(=O)n(Cc2ccc(C34CC5CC(CC(C5)C3)C4)c(O)c2)cc1F	inactive
CN1CCN(c2ccc3nc(-c4[nH]ncc4Nc4ncnc5[nH]ccc45)[nH]c3c2)CC1	inactive
CCOc1cc(/C=C/C(=O)CC(=O)/C=C/c2ccc(OC(=O)CNc3nc4ccc(OC)cc4s3)c(OCC)c2)ccc1OC(=O)CNc1nc2ccc(OC)cc2s1	inactive
CCN(Cc1ccccc1)c1ccc(/C=C2\COc3ccccc3C2=O)cc1	inactive
COc1cccc2c1C(=O)c1c(O)c3c(c(O)c1C2=O)C[C@@](O)(/C(C)=N/NC(=O)c1cccc([N+](=O)[O-])c1)C[C@@H]3OC1CC(N)C(O)C(C)O1 (some centres undefined)	inactive

###

- Test system: HCT-116 colon
- METHOD_NOTES: NCI tumour cell line growth inhibition, 48 h
# TGI annotations
MEASURE_NAME: TGI (µM)

>>> df
                                   compound  qualifier_symbol  endpoint_value
0  O=C1C2C3SC(c4cc5ccccc5cc43)C2C(=O)N1c1ccccc1 (stereo not given)                 >             100
1  Oc1ccc(CCNc2nc3ccccc3c3[nH]c4ccccc4c23)cc1O                 =             2.7
2              CC(C)Cn1cnc2c(N)nc3ccccc3c21                 >            73.1
3        Cc1cc(C)c2c(c1)CSCc1cc(C)cc(C)c1-2                 =            60.5
4  CCOc1ccc2c(c1)[n+]([O-])c(C(N)=O)c(N)[n+]2[O-]                 >             100
5    N#Cc1nc2cc(Cl)c(Cl)cc2nc1-c1ccc(Cl)cc1                 =            29.9
6  COc1ccc(/C=C2\C(=O)N(C(=O)c3ccc(NC(C)=O)cc3)N=C2C)cc1OC                 >             100
7  N#CSc1c[nH]c2ccc(/C=C/C(=O)/C=C(O)/C=C/c3ccc4[nH]cc(SC#N)c4c3)cc12                 =            1.19
8  CCCCCCCCCCCCCOCCOCCOCCCCC(O)CCCCCCCCCC1=C[C@H](C)OC1=O (stereo not given in full)                 =            33.4
9  CCOC(=O)c1nc2ccccc2nc1Nc1cc(OC)c(OC)c(OC)c1                 >             100

###

- Test system: SW-620 colon
- METHOD_NOTES: NCI tumour cell line growth inhibition, 48 h
MEASURE_NAME: TGI (µM)

>>> print(df.to_string())
                              line_notation  target_or_system  measure_name  qualifier_symbol  endpoint_value
0  COc1ccc2c(c1)c(-c1ccc(-c3cn(C)c4ccc(OC)cc34)s1)cn2C      SW-620 colon           TGI                 >             100
1  O=[N+]([O-])C(/C(Cl)=C(/Cl)N1CCOCC1)=C1\Nc2ccccc2O1      SW-620 colon           TGI                 >             100
2  Cc1cc2c3c(c1)S(=O)(=O)c1cc(Cl)ccc1N3CCC2      SW-620 colon           TGI                 >             100
3  COc1ccc(OC)c([N+](=O)[O-])c1-c1nc2sc(Cl)cn2c1/C=N/N=C(N)N      SW-620 colon           TGI                 =              55
4  Clc1cccc(-c2cc(-c3ccc4c(c3)OCCO4)[nH]n2)c1      SW-620 colon           TGI                 =            44.9

###

- Tested on: NCI-H522 lung
- METHOD_NOTES: NCI tumour cell line growth inhibition, 48 h
# TGI annotations
MEASURE_NAME: TGI

                                    compound  endpoint_value
 0  CCCCCCc1cc2cc(C(=O)Nc3nc(C45CC6CC(CC(C6)C4)C5)cs3)c(=O)oc2cc1O         8.33 µM
 1        O=C(O)C1CCCN1 (stereo unspecified)        > 100 µM
 2  COc1ccc(C(O)C(c2ccc(OCc3ccccc3)cc2)c2ccc(OCc3ccccc3)cc2)cc1 (stereo unspecified)        > 100 µM
 3  COc1cc2c(c3nc4ccccc4nc13)-c1ccc(SC)c(=O)cc1[C@@H](NC(C)=O)CC2        0.151 µM
 4  CN(C)N1C(=C(C#N)C#N)C(c2ccccc2)CC1C#N (stereo unspecified)        > 100 µM
 5  CS(=O)(=O)N(CCC#N)c1ccc(/C=C2\N=C(c3ccccc3Cl)OC2=O)cc1        > 100 µM
 6  COC(=O)C1=C(C(=O)OC)C23CC4CCC2(C(=O)C1O3)C4(C)C (stereo unspecified)         48.8 µM
 7            CN(c1ccccc1)c1nc(=[N+](C)C)ss1        > 100 µM
 8  Cc1ccccc1NC(=O)C(=O)C(C1OC(=O)c2ccccc21)[N+](=O)[O-] (stereo unspecified)        > 100 µM
 9         COc1cc2ncnc(Nc3cccc(Br)c3)c2cc1OC         11.1 µM
10  CC(=O)N1N=C(c2ccccc2)NC(=O)C1c1cc(C)c(O)c(C)c1 (stereo unspecified)           37 µM
11  COc1ccc(OC)c([N+](=O)[O-])c1-c1nc2sc(Cl)cn2c1/C=N/N=C(N)N         37.9 µM
12  [Cu].c1ccc2c(c1)C1=NC2=NC2=NC(=NC3=NC(=NC4=NC(=N1)c1ccccc14)c1ccccc13)c1ccccc12        > 100 µM
13                              CCOC(=O)CCCN        > 100 µM
14  CC(C)(Sc1cc(C(C)(C)C)c(O)c(C(C)(C)C)c1)Sc1cc(C(C)(C)C)c(O)c(C(C)(C)C)c1        > 100 µM
15  CCOc1ccc2c(c1)[n+]([O-])c(C(N)=O)c(N)[n+]2[O-]        > 100 µM
16  CC(C)(C)c1ccc(O)c(C(O)c2ccccn2)c1 (stereo unspecified)        > 100 µM
17  COc1cc(/C=C2\CC3C4CC=C5C[C@@H](O)CC[C@]5(C)C4CC[C@]3(C)\C2=N\O)cc(OC)c1OC (stereo partly specified)        > 100 µM
18  CCCSc1ccc2[nH]c(N3C(=O)/C(=C/c4ccc(O)c(OC)c4)N=C3c3ccccc3)cc2c1         24.3 µM
19  CC1(N2CCOCC2)CC2C(=[N+]1[O-])CCC/C2=N/O (stereo unspecified)        > 100 µM
20    COC1CCC(O)C(CO)O1 (stereo unspecified)         26.9 µM
